target: 5-hydroxytryptamine receptor 1A (Homo sapiens, UniProt P08908); experiment: Displacement of [3H]8-OH-DPAT from recombinant human 5-HT1A receptor expressed in HeLa cell membranes after 30 mins by TopCount liquid scintillation counting method
Sequence (P08908 whole entry): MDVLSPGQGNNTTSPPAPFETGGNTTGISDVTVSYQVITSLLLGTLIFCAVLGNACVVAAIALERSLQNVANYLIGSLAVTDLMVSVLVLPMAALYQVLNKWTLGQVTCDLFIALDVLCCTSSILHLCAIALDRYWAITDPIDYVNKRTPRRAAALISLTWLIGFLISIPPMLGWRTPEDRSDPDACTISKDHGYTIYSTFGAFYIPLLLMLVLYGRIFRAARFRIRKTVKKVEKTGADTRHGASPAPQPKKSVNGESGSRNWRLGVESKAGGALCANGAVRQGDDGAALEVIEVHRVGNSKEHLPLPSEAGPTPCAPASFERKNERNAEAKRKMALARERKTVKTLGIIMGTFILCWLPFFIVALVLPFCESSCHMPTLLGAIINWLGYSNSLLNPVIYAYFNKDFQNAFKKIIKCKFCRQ
Test Readout: pKi
API: returns pKi as number; meaning -log10 of concentration in mol/L.

Reference set (3 entries):
>>> measured_number("COc1ccccc1N1CCN(CC2CSC3(CCCCC3)S2)CC1 (stereo unspecified)")
8.52
>>> measured_number("COc1ccccc1OCCNCC1CSC2(CCCCC2)S1 (stereo unspecified)")
9.03
>>> measured_number("COc1ccccc1N1CCN(CC2CSC3(CCCCC3)O2)CC1 (stereo unspecified)")
8.30

Data point: c1ccc(OCCNCC2CSC3(CCCCC3)S2)cc1 (stereo unspecified) ; pKi = 8.81

Recorded result, COc1ccccc1OCCNCC1CSC2(CCCCC2)O1 (stereo unspecified) , pKi: 8.65

Looking up c1ccc(OCCNCC2CSC3(CCCCC3)O2)cc1 (stereo unspecified) , I found its pKi recorded as 7.64

* * *

Biological target: UniProt P35348
Sequence (P35348 whole entry): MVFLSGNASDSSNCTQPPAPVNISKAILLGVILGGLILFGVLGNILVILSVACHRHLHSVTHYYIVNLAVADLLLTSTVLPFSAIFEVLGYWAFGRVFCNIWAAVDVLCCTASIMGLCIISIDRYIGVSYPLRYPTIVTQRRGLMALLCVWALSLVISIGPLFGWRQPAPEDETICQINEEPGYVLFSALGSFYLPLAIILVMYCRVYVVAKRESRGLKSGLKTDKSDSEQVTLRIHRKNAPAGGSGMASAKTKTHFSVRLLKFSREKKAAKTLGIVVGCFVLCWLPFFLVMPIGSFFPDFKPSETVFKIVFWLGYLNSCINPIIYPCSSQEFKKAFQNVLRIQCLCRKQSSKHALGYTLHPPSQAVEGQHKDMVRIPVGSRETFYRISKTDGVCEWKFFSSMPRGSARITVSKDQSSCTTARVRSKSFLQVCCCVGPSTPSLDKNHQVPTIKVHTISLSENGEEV
Assay: Displacement of [3H]prazosin from recombinant human alpha1a adrenergic receptor expressed in CHO cell membranes after 30 mins by TopCount liquid scintillation counting method
pKi overview
As a rule, pKi stands for the negative log10 of the concentration, concentration in M.

// below: answered molecules
>>> measured_number("COc1ccccc1OCCNCC1CSC2(CCCCC2)O1 (centres undefined)")
6.57
>>> measured_number("COc1ccccc1N1CCN(CC2CSC3(CCCCC3)S2)CC1 (centres undefined)")
6.70
>>> measured_number("COc1ccccc1OCCNCC1COC2(CCCCC2)O1 (centres undefined)")
6.64
>>> measured_number("COc1ccccc1OCCNCC1CSC2(CCCCC2)S1 (centres undefined)")
6.73

Kindly consider the entry below.
Form field pKi, entry COc1ccccc1N1CCN(CC2CSC3(CCCCC3)O2)CC1 (centres undefined) : 7.24

* * *

Each entry below carries its recorded pD2.
target: 5-hydroxytryptamine receptor 1A (Homo sapiens) (UniProt P08908); test: Agonist activity at recombinant human 5-HT1A receptor expressed in HeLa cell membranes assessed as induction of [35S]GTPgammaS binding preincubated for 20 mins followed by [35S]GTPgammaS addition measured after 30 mins by liquid scintillation counting method; type: functional
A bare number is all that is needed in reply.

>>> measured_number("COc1ccccc1N1CCN(CC2CSC3(CCCCC3)S2)CC1 (stereo not given)")
8.61

Record for COc1ccccc1N1CCN(CC2COC3(CCCCC3)O2)CC1 (stereo not given) under target or system 5-hydroxytryptamine receptor 1A (Homo sapiens) (UniProt P08908): pD2 reported as 8.61

c1ccc(OCCNCC2CSC3(CCCCC3)S2)cc1 (stereo not given) on 5-hydroxytryptamine receptor 1A (Homo sapiens) (UniProt P08908) gives pD2 = 8.27

Test item `COc1ccccc1N1CCN(CCN2C(=O)CC3(CCCC3)CC2=O)CC1` ; 5-hydroxytryptamine receptor 1A (Homo sapiens) (UniProt P08908); reported pD2 was 9.27

Result for COc1ccccc1OCCNCC1CSC2(CCCCC2)S1 (stereo not given) , tested on 5-hydroxytryptamine receptor 1A (Homo sapiens) (UniProt P08908), pD2: 9.58
